target: human DGAT2 (hDGAT2) (Homo sapiens (Human)); test: DGAT2 enzymatic activity assay (13C18-triolein formation, LC/MS/MS); format: biochemical; settings: table head without 'Human'; same membrane assay; read-out: DGAT2 IC50
Sequence (Q96PD7 whole entry): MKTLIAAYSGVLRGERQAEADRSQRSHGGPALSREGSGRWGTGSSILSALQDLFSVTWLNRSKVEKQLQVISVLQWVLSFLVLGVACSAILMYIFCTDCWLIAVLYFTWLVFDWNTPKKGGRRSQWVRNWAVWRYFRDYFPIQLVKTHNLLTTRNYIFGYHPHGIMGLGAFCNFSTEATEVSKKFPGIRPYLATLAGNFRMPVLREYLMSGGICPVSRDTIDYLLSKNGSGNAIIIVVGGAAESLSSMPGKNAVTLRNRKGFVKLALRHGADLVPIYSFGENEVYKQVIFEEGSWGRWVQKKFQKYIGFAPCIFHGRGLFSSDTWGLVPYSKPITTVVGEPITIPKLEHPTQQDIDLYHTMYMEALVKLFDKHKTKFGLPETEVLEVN
pIC50: −log10 of the molar value.
Binary classification by pIC50, with 7 as an inclusive lower bound for class 1; all other cases are class 0.

// query Is pIC50 at least 7? Consider CC(n1nc(-c2cc(OC(F)F)ncc2F)c2cnc(C(=O)NC3(C)CS(=O)(=O)C3)cc21)C(C)(C)O (single isomer, unassigned) [Example 133a]
// result class 0

// query CC(n1nc(-c2cc(OC(F)(F)F)ccc2F)c2ncc(C(=O)NC3(C)CS(=O)(=O)C3)cc21)C(C)(C)O (single isomer, unassigned) [Example 132a] ?
// result class 0

// query CC(n1nc(-c2cc(OC(F)(F)F)ccc2F)c2ncc(C(=O)NC3(C)CS(=O)(=O)C3)cc21)C(C)(C)O (single isomer, unassigned) [Example 132b] ?
// result class 0

// query CC(n1nc(-c2cccc(OC(F)F)c2)c2ncc(C(=O)NC3(C)CS(=O)(=O)C3)cc21)C(C)(C)O (single isomer, unassigned) [Example 130a] ?
// result class 1

// query CC(n1nc(-c2cc(OC(F)F)ncc2F)c2cnc(C(=O)NC3(C)CS(=O)(=O)C3)cc21)C(C)(C)O (single isomer, unassigned) [Example 133b] ?
// result class 1

// query CC(n1nc(-c2cc(OC(F)F)ccc2F)c2ncc(C(=O)NC3(C)CS(=O)(=O)C3)cc21)C(C)(C)O (single isomer, unassigned) [Example 131a] ?
// result class 1
